# Tested on: Staphylococcus aureus
# protocol.description: Antimicrobial activity against methicillin-susceptible Staphylococcus aureus isolated from ICU patient respiratory tract assessed as resistant isolates by broth microdilution method
# Assay type: functional
value.kind: Activity (%)
Give just the numeric value; % need not be written.

What value of measured Activity is listed for C[C@@H](O)[C@H]1C(=O)N2C(C(=O)O)=C(S[C@@H]3CN[C@H](C(=O)N(C)C)C3)[C@H](C)[C@H]12 ? 0

Could you share which Activity value was measured for CC(=O)NC[C@H]1CN(c2ccc(N3CCOCC3)c(F)c2)C(=O)O1 ? 0

Which Activity is reported for this compound? CCCCCCCCCC(=O)N[C@@H](Cc1c[nH]c2ccccc12)C(=O)N[C@H](CC(N)=O)C(=O)N[C@@H](CC(=O)O)C(=O)N[C@@H]1C(=O)NCC(=O)N[C@@H](CCCN)C(=O)N[C@@H](CC(=O)O)C(=O)N[C@H](C)C(=O)N[C@@H](CC(=O)O)C(=O)NCC(=O)N[C@H](CO)C(=O)N[C@@H]([C@H](C)CC(=O)O)C(=O)N[C@@H](CC(=O)c2ccccc2N)C(=O)O[C@@H]1C 0

Sample C[C@H]1COc2c(N3CCN(C)CC3)c(F)cc3c(=O)c(C(=O)O)cn1c23.C[C@H]1COc2c(N3CCN(C)CC3)c(F)cc3c(=O)c(C(=O)O)cn1c23.O — what was its Activity? 6.9

Look at this compound and give its reported Activity. Cc1nnc(SCC2=C(C(=O)O)N3C(=O)[C@@H](NC(=O)Cn4cnnn4)[C@H]3SC2)s1 0

I have this compound here, O=C(O)c1cn(C2CC2)c2cc(N3CCNCC3)c(F)cc2c1=O , and I need its recorded Activity. 7.5

Param item = COc1c(N2C[C@@H]3CCCN[C@@H]3C2)c(F)cc2c(=O)c(C(=O)O)cn(C3CC3)c12 ; retrieve measured Activity. 5.8

----------
Assignment: determine reported Activity for the given molecules.
# Tested on: Escherichia coli
# protocol.description: Antimicrobial activity against CTX-M ESBL producing Escherichia coli isolated from ICU patient blood assessed as resistant isolates by broth microdilution method
# Type: functional

Lab note: need Activity with Escherichia coli for entry CN(C)c1cc(NC(=O)CNC(C)(C)C)c(O)c2c1C[C@H]1C[C@H]3[C@H](N(C)C)C(O)=C(C(N)=O)C(=O)[C@@]3(O)C(O)=C1C2=O , please look it up. 0%

Form field - read-out: Activity; system: Escherichia coli; submitted item: C[C@H]1COc2c(N3CCN(C)CC3)c(F)cc3c(=O)c(C(=O)O)cn1c23.C[C@H]1COc2c(N3CCN(C)CC3)c(F)cc3c(=O)c(C(=O)O)cn1c23.O 23.3%

Could you share what Activity was measured for NCC[C@H](O)C(=O)N[C@@H]1C[C@H](N)[C@@H](O[C@H]2O[C@H](CN)[C@@H](O)[C@H](O)[C@H]2O)[C@H](O)[C@H]1O[C@H]1O[C@H](CO)[C@@H](O)[C@H](N)[C@H]1O , tested on Escherichia coli? 0%

----------
Please go through the items and note down their Activity.
# Test system: Pseudomonas aeruginosa
# protocol.description: Antimicrobial activity against carbapenem-resistant Pseudomonas aeruginosa assessed as resistant isolates by broth microdilution method
# Type: functional
Give the number; % is assumed, so skip it.

// query Activity value for entry NCC[C@H](O)C(=O)N[C@@H]1C[C@H](N)[C@@H](O[C@H]2O[C@H](CN)[C@@H](O)[C@H](O)[C@H]2O)[C@H](O)[C@H]1O[C@H]1O[C@H](CO)[C@@H](O)[C@H](N)[C@H]1O 0

Activity for C[C@@H](O)[C@H]1C(=O)N2C(C(=O)O)=C(S[C@@H]3CN[C@H](C(=O)N(C)C)C3)[C@H](C)[C@H]12 ? 0

Looking for the measured Activity of C[C@H]1COc2c(N3CCN(C)CC3)c(F)cc3c(=O)c(C(=O)O)cn1c23.C[C@H]1COc2c(N3CCN(C)CC3)c(F)cc3c(=O)c(C(=O)O)cn1c23.O , can you help? 3.6
